The reported numbers originate from paper PMC5916898.

biological target: SP1 (Homo sapiens, UniProt P08047); assay: pulldown; 150 mM NaCl, 50 mM Tris pH 8, 0.25% NP-40, 1 mM TCEP; 4 C, 2 h; 100 ug HeLa nuclear lysate; conditions: protein: extract; label: 5' biotin (strand 1)
Sequence (P08047 whole entry): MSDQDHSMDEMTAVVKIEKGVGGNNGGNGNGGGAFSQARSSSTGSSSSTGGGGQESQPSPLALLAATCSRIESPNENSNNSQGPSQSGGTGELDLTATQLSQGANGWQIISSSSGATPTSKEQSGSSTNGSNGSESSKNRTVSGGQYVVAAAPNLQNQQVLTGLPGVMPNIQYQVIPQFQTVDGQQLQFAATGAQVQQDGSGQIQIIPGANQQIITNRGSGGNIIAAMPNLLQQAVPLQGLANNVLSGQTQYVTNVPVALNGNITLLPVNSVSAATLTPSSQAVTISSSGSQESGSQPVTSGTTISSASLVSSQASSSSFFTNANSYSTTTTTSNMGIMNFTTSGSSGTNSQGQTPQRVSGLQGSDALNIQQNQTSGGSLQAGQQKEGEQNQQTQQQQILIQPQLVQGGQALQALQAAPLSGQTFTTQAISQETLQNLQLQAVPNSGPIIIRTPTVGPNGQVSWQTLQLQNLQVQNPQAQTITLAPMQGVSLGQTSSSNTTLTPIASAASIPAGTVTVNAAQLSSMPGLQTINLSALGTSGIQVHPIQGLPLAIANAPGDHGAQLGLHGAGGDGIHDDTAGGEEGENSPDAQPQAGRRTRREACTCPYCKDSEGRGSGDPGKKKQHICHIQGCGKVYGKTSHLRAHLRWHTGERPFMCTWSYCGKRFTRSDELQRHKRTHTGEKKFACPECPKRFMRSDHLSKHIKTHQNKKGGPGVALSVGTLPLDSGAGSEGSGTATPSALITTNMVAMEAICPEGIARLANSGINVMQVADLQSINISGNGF
measurement label: apparent K (half saturation) (nM)
One number for each entry, in nM.

Provide reported apparent K (half saturation) for each item, in the same order as listed.
1. SP/KLF wild-type (dsDNA) DNA 1: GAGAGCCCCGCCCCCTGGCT DNA 2: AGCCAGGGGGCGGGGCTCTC
2. NF-Y (dsDNA) DNA 1: ATTGACCAATCAGAGGTAGGATGAT DNA 2: ATCATCCTACCTCTGATTGGTCAAT
3. TATA-box (dsDNA) DNA 1: GCGGCGCTCTATATAAGTGGGCAGTG DNA 2: CACTGCCCACTTATATAGAGCGCCGC
4. CTCF (dsDNA) DNA 1: TCAGAGTGGCGGCCAGCAGGGGGCGCCCTTGCCAGA DNA 2: TCTGGCAAGGGCGCCCCCTGCTGGCCGCCACTCTGA

Reply |
38
185
284
86.9
